pIC50: −log10 of the molar value.
Here's what we have: pIC50 numbers for sigma-1 receptor (guinea pig brain) (Cavia porcellus, UniProt Q60492).
MEASURED_ATTRIBUTE: pIC50

In [3]: df
Out[3]:
                                    compound  measured_attribute     val
 0  O=C1CCC2(CCN(Cc3ccc(F)cc3)CC2)Nc2ccccc21               pIC50  > 8.00
 1  O=C1C=CC2(CCN(Cc3ccc(F)cc3)CC2)Nc2ccccc21               pIC50  > 7.00
 2  O=C1CCC2(CCN(Cc3nc4ccccc4[nH]3)CC2)Nc2ccccc21               pIC50  > 6.00
 3                O=C1CCC2(CCNCC2)Nc2ccccc21               pIC50  < 6.00
 4  O=C1CCC2(CCN(C(=O)N3CCOCC3)CC2)Nc2ccccc21               pIC50  < 6.00
 5  O=C1CCC2(CCN(C(=O)c3ccc(Cl)c(Cl)c3)CC2)Nc2ccccc21               pIC50  < 6.00
 6       CC(C)CCN1CCC2(CCC(=O)c3ccccc3N2)CC1               pIC50  > 7.00
 7  COC(=O)c1ccc(CN2CCC3(CCC(=O)c4ccccc4N3)CC2)cc1               pIC50  > 6.00
 8  CC(C)(C)c1ccc(C(=O)N2CCC3(CCC(=O)c4ccccc4N3)CC2)cc1               pIC50  < 6.00
 9  CCN(CC)C(=O)N1CCC2(CCC(=O)c3ccccc3N2)CC1               pIC50  < 6.00
10  OC1CCC2(CCN(Cc3ccc(F)cc3)CC2)Nc2ccccc21 (racemic)               pIC50  > 8.00
11  O=C1CCC2(CCN(C(=O)c3ccc4ccccc4c3)CC2)Nc2ccccc21               pIC50  < 6.00
12  O=C1CCC2(CCN(S(=O)(=O)c3ccccc3)CC2)Nc2ccccc21               pIC50  < 6.00

---

- TEST_DETAILS: Metabolic Stability
MEASURED_ATTRIBUTE: Metabolic Stability (% parent remaining)

>>> df
                                   compound                        measured_attribute                    val
0  OC1CCC2(CCN(Cc3ccc(F)cc3)CC2)Nc2ccccc21 (racemic) [Compound 32]  Metabolic Stability (% parent remaining)   1 % parent remaining
1  O=C1CCC2(CCN(Cc3nc4ccccc4[nH]3)CC2)Nc2ccccc21 [Compound 21]  Metabolic Stability (% parent remaining)  17 % parent remaining
2  O[C@@H]1CCC2(CCN(Cc3ccc(F)cc3)CC2)Nc2ccccc21 [Compound 50]  Metabolic Stability (% parent remaining)  87 % parent remaining
3  O=C1CCC2(CCN(Cc3ccc(F)cc3)CC2)Nc2ccccc21 [Compound 31]  Metabolic Stability (% parent remaining)  44 % parent remaining
4  O[C@H]1CCC2(CCN(Cc3ccc(F)cc3)CC2)Nc2ccccc21 [Compound 49]  Metabolic Stability (% parent remaining)  69 % parent remaining
